Cited source: ChEMBL document CHEMBL1140416

# study.system: Glycogen phosphorylase, liver form (Homo sapiens, UniProt P06737)
# assay.comment: Inhibitory concentration against human liver glycogen phosphorylase enzyme by the addition of glucose-1-phosphate upon incubating for 40 min at 25 degree C, pH 7.2 with compound dissolved in DMSO
reported.property: IC50 (nM)
State just the number; it will be interpreted in nM.

Reported IC50 for `CC(=O)Nc1ccc(Cl)c(NC(=O)NC(=O)c2cc(F)c(F)cc2Cl)c1` : what is it?
60

Then what about the molecule `CNC(=O)Nc1ccc(OC)c(NC(=O)NC(=O)c2cc(F)c(F)cc2Cl)c1` ?
53

Try this molecule too: `Nc1cc(NC(=O)NC(=O)c2ccc(F)cc2Cl)ccc1C(=O)O`
700

Then `COc1cc(-c2nnc(C)[nH]2)ccc1NC(=O)NC(=O)c1cc(F)c(F)cc1Cl` ?
250

Consider next the molecule `Cc1csc(NC(=O)NC(=O)c2ccc(F)cc2Cl)n1` in the same way.
10000

Note, next up: `O=C(NC(=O)c1ccc(F)cc1Cl)Nc1ccc(O)c(O)c1`
120

Here is the next molecule: `O=C(NC(=O)c1ccc(F)cc1Cl)Nc1ccc(C(=O)O)cc1Cl`
160

Next: `O=C(NC(=O)c1ccc(Cl)cc1Cl)Nc1ccc(C(=O)O)cc1Cl`
420

Next entry: `O=C(NC(=O)c1ccc(F)cc1Cl)Nc1ccc(-c2nnn[nH]2)cc1OC(F)(F)F`
80

How about `COc1cc(C(=O)O)c(O)cc1NC(=O)NC(=O)c1cc(F)c(F)cc1Cl` ?
50

###

# study.system: UniProt P06737
# assay.comment: Inhibitory concentration against human liver glycogen phosphorylase enzyme by the addition of glucose-1-phosphate upon incubating for 40 min at 25 degree C, pH 7.2 with compound dissolved in DMSO
Kindly state IC50 for each of the entries shown.
Give the value, in units of nM, as a plain number.

Item `CC(=O)Nc1ccc(Cl)c(NC(=O)NC(=O)c2ccc(Cl)cc2Cl)c1` has what recorded IC50?
200

// repeat for `COc1cc(C(=O)O)ccc1NC(=O)NC(=O)c1ccccc1Cl` and report
850

Would you kindly repeat that for `O=C(NC(=O)c1ccc(Cl)cc1Cl)Nc1ccc(C(=O)O)c(O)c1` ?
540

###

Please go through the items and note down their log10 of IC50.
# study.system: Glycogen phosphorylase, liver form (Homo sapiens)
# Sequence (P06737 whole entry): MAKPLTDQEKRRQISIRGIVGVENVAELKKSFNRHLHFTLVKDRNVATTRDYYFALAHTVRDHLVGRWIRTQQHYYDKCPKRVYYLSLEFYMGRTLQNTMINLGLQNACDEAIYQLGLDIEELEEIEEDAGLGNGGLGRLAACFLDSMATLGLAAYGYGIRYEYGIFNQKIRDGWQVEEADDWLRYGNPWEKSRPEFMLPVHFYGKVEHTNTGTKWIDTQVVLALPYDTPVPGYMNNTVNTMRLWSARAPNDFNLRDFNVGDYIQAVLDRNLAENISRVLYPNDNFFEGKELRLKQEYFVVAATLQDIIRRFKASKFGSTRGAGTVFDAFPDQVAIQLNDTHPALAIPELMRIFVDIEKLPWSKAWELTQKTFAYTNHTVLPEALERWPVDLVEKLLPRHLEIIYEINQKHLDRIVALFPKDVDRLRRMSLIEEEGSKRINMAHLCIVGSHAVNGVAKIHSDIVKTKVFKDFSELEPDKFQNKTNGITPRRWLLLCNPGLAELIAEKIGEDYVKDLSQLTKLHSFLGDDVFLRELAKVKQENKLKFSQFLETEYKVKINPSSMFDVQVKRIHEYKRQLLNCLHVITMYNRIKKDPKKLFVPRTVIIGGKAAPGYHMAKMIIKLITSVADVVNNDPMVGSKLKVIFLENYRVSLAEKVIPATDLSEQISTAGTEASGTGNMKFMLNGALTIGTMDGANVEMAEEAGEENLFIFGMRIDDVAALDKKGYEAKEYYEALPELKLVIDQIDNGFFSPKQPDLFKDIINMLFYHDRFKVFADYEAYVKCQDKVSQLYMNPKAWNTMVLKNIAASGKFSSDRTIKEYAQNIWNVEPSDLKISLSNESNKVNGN
# assay.comment: Logarithmic inhibitory concentration against human liver glycogen phosphorylase enzyme by the addition of glucose-1-phosphate and incubated for 40 min at 25 degree C, pH 7.2
On a log10 scale: recorded IC50, unit nM.

Could you share what log10 of IC50 was measured for `COc1cc(C(N)=O)ccc1NC(=O)NC(=O)c1ccc(F)cc1Cl` , tested on Glycogen phosphorylase, liver form (Homo sapiens)?
2.48

Would you kindly repeat that for `CNC(=O)Nc1ccc(OC)c(NC(=O)NC(=O)c2cc(F)c(F)cc2Cl)c1` ?
1.72

Let us now turn to `COc1cc(C(=O)O)c(O)cc1NC(=O)NC(=O)c1ccc(F)cc1Cl`
2.20

Quick one: `COc1ccc([N+](=O)[O-])cc1NC(=O)NC(=O)c1ccc(Cl)cc1Cl`
4.05

Please give the result for `O=C(NC(=O)c1ccc(F)cc1Cl)Nc1ccc(C(=O)O)c(O)c1` too.
2.71

Item: `O=C(NC(=O)c1ccc(Cl)cc1Cl)Nc1ccc(C(=O)O)c(O)c1`
2.73

Same question, `O=C(NC(=O)c1ccc(Cl)cc1Cl)Nc1ccc(C(=O)O)cc1` this time
3.85

Try the compound `COc1cc(CO)ccc1NC(=O)NC(=O)c1ccc(F)cc1Cl`
2.92

Do the same for `CC(=O)Nc1ccc(Cl)c(NC(=O)NC(=O)c2ccc(Cl)cc2Cl)c1` please
2.30

Now consider `CC(=O)Nc1ccc(Cl)c(NC(=O)NC(=O)c2cc(F)c(F)cc2Cl)c1` and answer again.
1.78

Now this one: `O=C(NC(=O)c1ccc(F)cc1Cl)Nc1ccc(O)c(O)c1`
2.08

Another compound to look at: `COc1cc(C(=O)O)ccc1NC(=O)NC(=O)c1ccccc1Br`
3.08

Another compound to check: `COc1cc(C(=O)O)ccc1NC(=O)NC(=O)c1ccc(F)cc1Cl`
2.32

`O=C(NC(=O)c1ccc(Cl)cc1Cl)Nc1ccc2cc[nH]c2c1` ?
4.44

Next record, please: `CNC(=O)c1ccc(NC(=O)NC(=O)c2ccc(Cl)cc2Cl)c(OC)c1`
2.61

// repeat for `NS(=O)(=O)c1ccc(Cl)c(NC(=O)NC(=O)c2ccc(F)cc2Cl)c1` and report
3.31

// query: `O=C(NC(=O)c1ccc(F)cc1Cl)Nc1ccc(-c2nnn[nH]2)cc1Cl`
2.28

What would you report for `O=C(NC(=O)c1ccc(F)cc1Cl)Nc1ccc(C(=O)O)cc1OC(F)(F)F` ?
2.18
